Recorded values, source the supplement of paper PMC11451515.

# System: NOMO1
# experimental protocol: cell viability relative to DMSO control; higher = less cytotoxic
# condition description: HPLM + 10% dialyzed FBS; 48 h; 46.1 µM
# if measured cell viability < 70%: MET  # else: NOT MET

compound: CN(C(Cc1ccc(O[S+](=O)([O-])c2cccc3cnccc23)cc1)C(=O)N1CCN(c2ccccc2)CC1)[S+](=O)([O-])c1cccc2cnccc12 (stereo not given)
discrete label: MET
//
compound: NNc1nncc2ccccc12
discrete label: NOT MET
//
compound: COC(=O)C/1=C(C)/N/C(=C(\C1C2=CC(=CC=C2)[N+]([O-])=O)C(=O)OCCCN3CCC(CC3)(C4=CC=CC=C4)C5=CC=CC=C5)C (stereo not given)
discrete label: NOT MET
//
compound: Clc1ccccc1C(c1ccccc1)(c1ccccc1)n1ccnc1
discrete label: NOT MET
//
compound: COc1ccc2[nH]cc(CCNC(C)=O)c2c1
discrete label: NOT MET
//
compound: NCCc1ccc(O)c(O)c1
discrete label: MET
//
compound: CC(C)(C)OC(=O)Nc1ccc(-c2cc(C(=O)NCCCCCCC(=O)NO)no2)cc1
discrete label: MET
//
compound: OC[C@H]1OC(OC2=CC3=C(C(=C2)O)C(=O)\C(=C/O3)C4=CC=C(O)C=C4)[C@H](O)[C@@H](O)[C@@H]1O (stereo not given in full)
discrete label: NOT MET
//
compound: CCCCCCCCCCCC/1=C(O)/C(=O)/C=C(O)\C1=O
discrete label: MET
//
compound: COc1cc2c(Nc3ccc(Cl)c(Cl)c3F)ncnc2cc1OC[C@@H]1C[C@@H]2CN(C)C[C@@H]2C1
discrete label: MET
//
compound: CC(C)(Sc1ccc(CCN(CCCCC2CCCCC2)C(=O)NC2CCCCC2)cc1)C(=O)O
discrete label: NOT MET
//
compound: O=C(NCc1ccccc1)c1csc(Nc2ccncn2)n1
discrete label: MET
//
compound: N=C(N)NC(=N)N1CCOCC1
discrete label: NOT MET
//
compound: CCOCC(O)COc1ccc(NC(=O)CC[S+](C)C)cc1 (stereo not given)
discrete label: NOT MET
//
compound: CCCCc1nc2cc(/C=C/C(=O)NO)ccc2n1CCN(CC)CC
discrete label: MET

* * *

# Test system: NOMO1
# experimental protocol: cell viability relative to DMSO control; higher = less cytotoxic
# condition description: RPMI 5 mM glucose + 10% FBS; 48 h; 0.000781 µM

molecule: Clc1ccccc1C(c1ccccc1)(c1ccccc1)n1ccnc1
cell viability, %: 103
--
molecule: C[C@@H](N)C1CC[C@@H](CC1)C(=O)NC2=CC=NC=C2 (stereo partly drawn)
cell viability, %: 114
--
molecule: CC(S)C(=O)NCC(=O)O (stereo not drawn)
cell viability, %: 120
--
molecule: CC1=C(/C=C/C(C)=C/C=C/C(C)=C/C(=O)O)C(C)(C)CCC1
cell viability, %: 128
--
molecule: C1COC(NC(C2CC2)C2CC2)=N1
cell viability, %: 75.3
--
molecule: CC[C@H]1CN2CCc3cc(OC)c(OC)cc3[C@@H]2C[C@@H]1C[C@H]1NCCc2cc(OC)c(OC)cc21
cell viability, %: 103
--
molecule: Oc1ccc2ccccc2c1SSc1c(O)ccc2ccccc12
cell viability, %: 98.9
--
molecule: CCN(CC)CCCC(C)Nc1nc(C)cc(Nc2ccc3nc(C)cc(N)c3c2)n1 (stereo not drawn)
cell viability, %: 96.3
--
molecule: CC(C)CC(N(C)C)C1(c2ccc(Cl)cc2)CCC1 (stereo not drawn)
cell viability, %: 110
--
molecule: NC(CO)C(=O)NNCc1ccc(O)c(O)c1O (stereo not drawn)
cell viability, %: 85.6
--
molecule: CCOC(=O)N[C@@H]1CC[C@@H]2[C@@H](C1)C[C@H]1C(=O)O[C@H](C)[C@H]1[C@H]2/C=C/c1ccc(-c2cccc(F)c2)cn1
cell viability, %: 114
--
molecule: Nc1nc(N)c(N=O)c(OCC2CCCCC2)n1
cell viability, %: 90.3
--
molecule: C[C@H](Cc1ccc(O)c(O)c1)[C@@H](C)Cc1ccc(O)c(O)c1
cell viability, %: 141
--
molecule: CCOC(=O)O[C@]1(C(=O)OCCl)CC[C@H]2[C@@H]3CCC4=CC(=O)C=C[C@]4(C)[C@H]3[C@@H](O)C[C@@]21C
cell viability, %: 98.4
--
molecule: NCCc1ccc(O)c(O)c1
cell viability, %: 120
--
molecule: NNc1nncc2ccccc12
cell viability, %: 123
--
molecule: C1CN\2C[C@@H](\N=C2S1)C3=CC=CC=C3
cell viability, %: 87.9
--
molecule: O=C1CCCC(=O)C1C(=O)c1ccc(C(F)(F)F)cc1[N+](=O)[O-]
cell viability, %: 102
